Tested on: MDA-MB-231 complex spheroids, growth inhibition
Test: Anticancer human tumor MDA-MB-231 cell line growth inhibition [Asc]; active = viability on the fitted dose curve at most 10% of control; inactive = the rest;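 note: spheroids exposed to compounds for 7 days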
Conditions: second compound 0.03 µM; first compound 0.0316 µM
I would appreciate it if you answered using one of these outcomes: True for active, False for inactive

Q) Per the assay record, what outcome was assigned to COc1c(OCCCN2CCOCC2)ccc2c3n(c(=NC(=O)c4cnc(N)nc4)nc12)CCN3 + CCN1C(C(=O)NC23CCC(C(=O)O)(CC2)CC3)C(c2cccc(Cl)c2F)C2(C(=O)Nc3cc(Cl)ccc32)C12CCCCC2 ?
A) False

Q) Per the assay record, what outcome was assigned to CCN1CCN(Cc2ccc(Nc3ncc(F)c(-c4cc(F)c5nc(C)n(C(C)C)c5c4)n3)nc2)CC1 + CCN1C(C(=O)NC23CCC(C(=O)O)(CC2)CC3)C(c2cccc(Cl)c2F)C2(C(=O)Nc3cc(Cl)ccc32)C12CCCCC2 ?
A) False

Q) Per the assay record, what outcome was assigned to C=CC(=O)N1CCN(c2nc(=O)n(-c3c(C)ccnc3C(C)C)c3nc(-c4c(O)cccc4F)c(F)cc23)C(C)C1 (configuration not stated) + CCN1C(C(=O)NC23CCC(C(=O)O)(CC2)CC3)C(c2cccc(Cl)c2F)C2(C(=O)Nc3cc(Cl)ccc32)C12CCCCC2 ?
A) False

Q) Per the assay record, what outcome was assigned to Cn1ncnc1[C@H]1c2n[nH]c(=O)c3cc(F)cc(c23)N[C@@H]1c1ccc(F)cc1 + CCN1C(C(=O)NC23CCC(C(=O)O)(CC2)CC3)C(c2cccc(Cl)c2F)C2(C(=O)Nc3cc(Cl)ccc32)C12CCCCC2 ?
A) False

Q) Per the assay record, what outcome was assigned to CNC(C)C(=O)NC1CN(S(=O)(=O)c2cccc(S(=O)(=O)N3CCC4CCC(C(=O)NC(c5ccccc5)c5ccccc5)N4C(=O)C(NC(=O)C(C)NC)C3)c2)CCC2CCC(C(=O)NC(c3ccccc3)c3ccccc3)N2C1=O (configuration not stated) + CCN1C(C(=O)NC23CCC(C(=O)O)(CC2)CC3)C(c2cccc(Cl)c2F)C2(C(=O)Nc3cc(Cl)ccc32)C12CCCCC2 ?
A) True

Q) Per the assay record, what outcome was assigned to C=C(F)C(=O)N1CCN(c2nc(OCC3CCCN3C)nc3c2CCN(c2cccc4cccc(Cl)c24)C3)CC1CC#N (configuration not stated) + CCN1C(C(=O)NC23CCC(C(=O)O)(CC2)CC3)C(c2cccc(Cl)c2F)C2(C(=O)Nc3cc(Cl)ccc32)C12CCCCC2 ?
A) False

Q) Per the assay record, what outcome was assigned to O=C(c1cc(Cc2n[nH]c(=O)c3ccccc23)ccc1F)N1CCN(C(=O)C2CC2)CC1 + CCN1C(C(=O)NC23CCC(C(=O)O)(CC2)CC3)C(c2cccc(Cl)c2F)C2(C(=O)Nc3cc(Cl)ccc32)C12CCCCC2 ?
A) False

---

Tested on: MDA-MB-231 complex spheroids, growth inhibition
Experiment: Anticancer human tumor MDA-MB-231 cell line growth inhibition [Asc];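 note: spheroids exposed to compounds for 7 days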
Conditions: second compound 0.949 µM; first compound 0.00316 µM; hits give low values
PARAMETER_MEASURED: viability, T/C (%)
Write the answer as a number in %, unit excluded.

// below: answered compounds
compound="CCN1CCN(Cc2ccc(Nc3ncc(F)c(-c4cc(F)c5nc(C)n(C(C)C)c5c4)n3)nc2)CC1 + CCN1C(C(=O)NC23CCC(C(=O)O)(CC2)CC3)C(c2cccc(Cl)c2F)C2(C(=O)Nc3cc(Cl)ccc32)C12CCCCC2" measurement_target="MDA-MB-231 complex spheroids, growth inhibition" readout_units=% value_reported=105
compound="CNC(C)C(=O)NC1CN(S(=O)(=O)c2cccc(S(=O)(=O)N3CCC4CCC(C(=O)NC(c5ccccc5)c5ccccc5)N4C(=O)C(NC(=O)C(C)NC)C3)c2)CCC2CCC(C(=O)NC(c3ccccc3)c3ccccc3)N2C1=O (stereo unspecified) + CCN1C(C(=O)NC23CCC(C(=O)O)(CC2)CC3)C(c2cccc(Cl)c2F)C2(C(=O)Nc3cc(Cl)ccc32)C12CCCCC2" measurement_target="MDA-MB-231 complex spheroids, growth inhibition" readout_units=% value_reported=3.82
compound="COc1c(OCCCN2CCOCC2)ccc2c3n(c(=NC(=O)c4cnc(N)nc4)nc12)CCN3 + CCN1C(C(=O)NC23CCC(C(=O)O)(CC2)CC3)C(c2cccc(Cl)c2F)C2(C(=O)Nc3cc(Cl)ccc32)C12CCCCC2" measurement_target="MDA-MB-231 complex spheroids, growth inhibition" readout_units=% value_reported=100
compound="NC1CCC(NC2CC2c2ccccc2)CC1 (stereo unspecified) + CCN1C(C(=O)NC23CCC(C(=O)O)(CC2)CC3)C(c2cccc(Cl)c2F)C2(C(=O)Nc3cc(Cl)ccc32)C12CCCCC2" measurement_target="MDA-MB-231 complex spheroids, growth inhibition" readout_units=% value_reported=105
compound="Cn1ncnc1[C@H]1c2n[nH]c(=O)c3cc(F)cc(c23)N[C@@H]1c1ccc(F)cc1 + CCN1C(C(=O)NC23CCC(C(=O)O)(CC2)CC3)C(c2cccc(Cl)c2F)C2(C(=O)Nc3cc(Cl)ccc32)C12CCCCC2" measurement_target="MDA-MB-231 complex spheroids, growth inhibition" readout_units=% value_reported=102

Next compound, please.
Q) Identify measured viability, T/C associated with O=C(c1ccc(F)c(F)c1Nc1ccc(I)cc1F)N1CC(O)([C@@H]2CCCCN2)C1 + CCN1C(C(=O)NC23CCC(C(=O)O)(CC2)CC3)C(c2cccc(Cl)c2F)C2(C(=O)Nc3cc(Cl)ccc32)C12CCCCC2
A) 86
